Biological target: p-Akt3 in WM115 cells (Homo sapiens, UniProt Q9Y243)
Construct: SureFire assays to detect cellular p-Akt1, p-Akt2 and p-Akt3 levels in WM115 cells (Akt2/3) and LNCaP cells (Akt1); endogenous in cells; host or cells: WM115 (ECACC 91061232), insulin-stimulated
Sequence (Q9Y243 whole entry): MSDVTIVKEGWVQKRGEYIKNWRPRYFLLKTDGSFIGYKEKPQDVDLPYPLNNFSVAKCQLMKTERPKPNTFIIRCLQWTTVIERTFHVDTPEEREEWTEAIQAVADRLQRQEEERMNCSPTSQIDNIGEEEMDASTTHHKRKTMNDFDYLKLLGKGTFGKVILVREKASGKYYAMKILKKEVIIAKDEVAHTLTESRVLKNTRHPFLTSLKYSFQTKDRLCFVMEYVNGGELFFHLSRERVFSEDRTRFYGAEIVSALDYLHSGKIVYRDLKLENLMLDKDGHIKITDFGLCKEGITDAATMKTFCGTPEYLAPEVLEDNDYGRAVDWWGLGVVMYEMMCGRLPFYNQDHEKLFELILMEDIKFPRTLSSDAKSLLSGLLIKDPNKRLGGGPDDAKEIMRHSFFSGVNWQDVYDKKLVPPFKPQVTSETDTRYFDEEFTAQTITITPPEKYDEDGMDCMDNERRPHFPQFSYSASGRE
Assay: Phospho-Akt cellular SureFire assay, p-Akt3 in WM115 cells
Format: cell-based
Conditions: insulin stimulated, read-out: Biological Assay 2 IC50 (nM) Akt3 WM115
True if IC50 is below 50 nM. False if not; exact matches included in False.

COC(=O)N(C)[C@H]1CC[C@H](CC(=O)Nc2cnc(-c3ccc(C(C)(C)N)c(F)c3)c(-c3ccccc3)c2)CC1 False

Now take the following molecule into account.
A record lists CCN(C(C)=O)[C@H]1CC[C@H](CC(=O)Nc2cc(-c3ccccc3)c(-c3ccc([C@]4(N)C[C@](C)(O)C4)cc3)cn2)CC1 . Is its IC50 below 50 nM?
True

====

Exercise: state measured IC50 for each of the compounds provided.
Molecular target: Akt2 (Homo sapiens)
Construct: unspecified tag, removed (detagged) (cleaved yes); purchased SignalChem and Proteros (Akt2); Merck Millipore (PDK1) 14-452 (PDK1); none given for Akt2
Sequence (P31751 whole entry): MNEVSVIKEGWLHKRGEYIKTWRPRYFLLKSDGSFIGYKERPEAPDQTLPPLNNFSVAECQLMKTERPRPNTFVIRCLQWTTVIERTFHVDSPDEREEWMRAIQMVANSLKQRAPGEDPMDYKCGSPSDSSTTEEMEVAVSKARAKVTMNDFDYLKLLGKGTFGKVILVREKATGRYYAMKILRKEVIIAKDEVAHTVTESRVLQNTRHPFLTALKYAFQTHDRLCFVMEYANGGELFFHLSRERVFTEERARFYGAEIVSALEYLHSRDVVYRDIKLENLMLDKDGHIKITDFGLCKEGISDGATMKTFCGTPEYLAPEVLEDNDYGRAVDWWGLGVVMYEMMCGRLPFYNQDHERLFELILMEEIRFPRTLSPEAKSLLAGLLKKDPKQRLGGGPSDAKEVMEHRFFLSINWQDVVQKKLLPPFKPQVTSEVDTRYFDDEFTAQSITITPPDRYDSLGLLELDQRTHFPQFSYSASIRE
Assay: Akt activation assay (PDK1-mediated activation, LANCE Ultra crosstide TR-FRET), Akt2
Type: biochemical
Details: read-out: Biological Assay 1 IC50 (nM) Akt2

See these solved cases before continuing.
CCC(=O)N(C)[C@H]1CC[C@H](CC(=O)Nc2cc(-c3ccsc3)c(-c3ccc([C@]4(N)C[C@](C)(O)C4)cc3)cn2)CC1 380 nM
CC(C)C(=O)N(C)[C@H]1CC[C@H](CC(=O)Nc2cc(-c3ccccc3)c(-c3ccc(C(C)(C)N)cc3)nn2)CC1 3400 nM
CC(=O)N(C)[C@H]1CC[C@H](CC(=O)Nc2cnc(-c3ccc(C(C)(C)N)c(F)c3)c(-c3ccccc3)c2)CC1 > 15000 nM

Batch: IC50 for all items listed.
1. C[C@]1(O)C[C@@](N)(c2ccc(-c3nnc(NC(=O)C[C@H]4CC[C@H](N5CCOC5=O)CC4)nc3-c3ccccc3F)cc2)C1
2. NC1(c2ccc(-c3ncc(NC(=O)C[C@H]4CC[C@H](N5CCCC5=O)CC4)cc3-c3ccsc3)cc2)CCC1
3. COC(=O)N(C)[C@H]1CC[C@H](CC(=O)Nc2cnc(-c3ccc(C4(N)CC4)c(F)c3)c(-c3ccccc3)c2)CC1

1: 860 nM; 2: 910 nM; 3: 2300 nM

====

Target: Akt3 (Homo sapiens)
Construct: unspecified tag, removed (detagged) (cleaved yes); purchased SignalChem and Proteros (Akt3); Merck Millipore (PDK1) 14-452 (PDK1); none given for Akt3
Test: Akt activation assay (PDK1-mediated activation, LANCE Ultra crosstide TR-FRET), Akt3
Format: biochemical
Conditions: read-out: Biological Assay 1 IC50 (nM) Akt3
I'd appreciate it if you could supply IC50 values for the items below.
Record the result as number plus unit.

Lab note: each compound below needs its IC50 filled in.
1. CC(=O)N(C)[C@H]1CC[C@H](CC(=O)Nc2cc(-c3ccccc3)c(-c3ccc(C4(N)CC(F)(F)C4)cc3)nn2)CC1
2. CN(C(=O)C1CC1)[C@H]1CC[C@H](CC(=O)Nc2cc(-c3ccccc3)c(-c3ccc(C4(N)CCC4)cc3)cn2)CC1
3. CC(=O)N(C(C)C)[C@H]1CC[C@H](CC(=O)Nc2cc(-c3ccccc3)c(-c3ccc([C@]4(N)C[C@](C)(O)C4)cc3)nn2)CC1
4. COC(=O)N(C)[C@H]1CC[C@H](CC(=O)Nc2cc(-c3ccccc3)c(-c3ccc(C4(N)CC(F)(F)C4)cc3)nn2)CC1
5. CC(C)(C)C(=O)N[C@H]1CC[C@H](CC(=O)Nc2cnc(-c3ccc(C4(N)CC4)cc3)c(-c3ccccc3)c2)CC1
6. CC(C)(N)c1ccc(-c2ncc(NC(=O)C[C@H]3CC[C@H](N4CCCCC4=O)CC3)cc2-c2ccccc2)cc1
7. COC1CCC(CC(=O)Nc2cnc(-c3ccc(C4(N)COC4)cc3)c(-c3ccccc3)c2)CC1 (mixture of isomers)

22 nM
24 nM
8 nM
50 nM
300 nM
440 nM
210 nM

Record IC50 for all entries; do not skip any.
1. CC(C)(N)c1ccc(-c2cnc(NC(=O)C[C@H]3CC[C@H](N4CCOC4=O)CC3)cc2-c2ccccc2)cc1
2. C[C@]1(O)C[C@@](N)(c2ccc(-c3ncc(NC(=O)C[C@H]4CC[C@H](NC(=O)C(F)F)CC4)cc3-c3ccccc3)cc2)C1
3. COC(=O)N(C)[C@H]1CC[C@H](CC(=O)Nc2cc(-c3ccccc3)c(-c3ccc(C4(N)CCC4)cc3)cn2)CC1
4. C[C@@H](N)c1ccc(-c2ncc(NC(=O)C[C@H]3CC[C@H](NC(=O)C(C)(C)C(F)(F)F)CC3)cc2-c2ccccc2)cc1
5. COC(=O)N(C)[C@H]1CC[C@H](CC(=O)Nc2cc(-c3ccccc3F)c(-c3ccc([C@]4(N)C[C@](C)(O)C4)cc3)cn2)CC1
6. CC(C)(N)c1ccc(-c2ncc(NC(=O)C[C@H]3CC[C@H](NC(=O)C4CCC4)CC3)cc2-c2ccccc2)cc1

1: 180 nM; 2: 10 nM; 3: 77 nM; 4: 880 nM; 5: 18 nM; 6: 160 nM

The reported measurements were obtained from patent US10336702B2.
